Reference source for all entries: patent US10321682B2

test: Acute oral toxicity in rats; settings: both sexes, rat, in vivo, both female rats and male rats
quantity: LD50

Task: Which LD50 reading was recorded for the compound N#Cc1c(Br)c(C(F)(F)F)n(Cc2cnc(Cl)s2)c1-c1ccc(Cl)cc1 ?
Output: > 5000 mg/kg

----------
experiment: Toxicity to Japanese carp; settings: in vivo
quantity: LC50 (µg/mL)
API: value field is a number in µg/mL; no unit string.

Task: Which LC50 is listed for N#Cc1c(Br)c(C(F)(F)F)n(Cc2cnc(Cl)s2)c1-c1ccc(Cl)cc1 ?
Output: 2.5
